Values were extracted from patent US9981913B2.

Target entity: human LXRβ (AA 153-461) LBD (Homo sapiens)
Construct: human LXRβ (AA 153-461) LBD plasmid; expressed in transfected cells; host or cells: HEK 293 cells, transient transfection with Fugene 6
Sequence (P55055 153-460 limits assumed): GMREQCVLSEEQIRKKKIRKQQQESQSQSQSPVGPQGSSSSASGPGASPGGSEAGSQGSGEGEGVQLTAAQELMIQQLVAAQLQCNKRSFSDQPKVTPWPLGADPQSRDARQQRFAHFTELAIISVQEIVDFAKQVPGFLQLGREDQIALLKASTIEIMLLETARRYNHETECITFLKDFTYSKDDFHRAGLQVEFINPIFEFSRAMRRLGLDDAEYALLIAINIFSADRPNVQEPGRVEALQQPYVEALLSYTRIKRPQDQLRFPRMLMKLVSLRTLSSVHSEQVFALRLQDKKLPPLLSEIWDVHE
Assay remarks: Gal4 LXRβ cotransfection assay (LXRβ Gal fusion assay)
Assay type: cell-based
Measurement setup: transiently transfected HEK 293 cells, Gal4-responsive luciferase reporter, compounds 0.01-10 μM, triplicate
Examples of compounds with documented EC50 follow.

See these solved cases before continuing.
Compound: CC(C)Cn1nc(C(=O)O)cc1-c1ccc(-c2cccc(S(C)(=O)=O)c2)cc1 [Example 6]
Target entity: human LXRβ (AA 153-461) LBD (Homo sapiens)
Reading: > 10 µM
//
Compound: CCOC(=O)Cc1nc(C(F)(F)F)cn1-c1ccc(-c2cccc(S(C)(=O)=O)c2)cc1 [Example 1]
Target entity: human LXRβ (AA 153-461) LBD (Homo sapiens)
Reading: 1 to 10 µM
//
Compound: CC(C)c1cc(-c2ccc(-c3cccc(S(C)(=O)=O)c3)cc2)n(CC(=O)O)n1 [Example 16]
Target entity: human LXRβ (AA 153-461) LBD (Homo sapiens)
Reading: > 10 µM

Data request, read-out EC50, for CC(C)Cc1nc(C(=O)O)cn1-c1ccc(-c2ccc(CO)c(S(C)(=O)=O)c2)cc1 [Example 12] > 10 µM

Data request, read-out EC50, for CCOC(=O)c1cc(-c2ccc(-c3ccc(CO)c(S(C)(=O)=O)c3)cc2)n(CC(C)C)n1 [Example 7] 1 to 10 µM

Data request, read-out EC50, for CCOC(=O)c1cn(-c2ccc(-c3ccc(CO)c(S(C)(=O)=O)c3)cc2)c(CC(C)C)n1 [Example 11] 1 to 10 µM

Data request, read-out EC50, for C=C(C)c1cc(-c2ccc(-c3cccc(S(C)(=O)=O)c3)cc2)n(CC(=O)OCC)n1 [Example 13] < 1 µM

Data request, read-out EC50, for CCOC(=O)c1cc(-c2ccc(-c3cccc(S(C)(=O)=O)c3)cc2)n(CC(C)C)n1 [Example 5] < 1 µM

====

Target entity: human LXRβ (AA 153-461) LBD (Homo sapiens, UniProt P55055)
Construct: human LXRβ (AA 153-461) LBD plasmid
Sequence (P55055 153-460 limits assumed): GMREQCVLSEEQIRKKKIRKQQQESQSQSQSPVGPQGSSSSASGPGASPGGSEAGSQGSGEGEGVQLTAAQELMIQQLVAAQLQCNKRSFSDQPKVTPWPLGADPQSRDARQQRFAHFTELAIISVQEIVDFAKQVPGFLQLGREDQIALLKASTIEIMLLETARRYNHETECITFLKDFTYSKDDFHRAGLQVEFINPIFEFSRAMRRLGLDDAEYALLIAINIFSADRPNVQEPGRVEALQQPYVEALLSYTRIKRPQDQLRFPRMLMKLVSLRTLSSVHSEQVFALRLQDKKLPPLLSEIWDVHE
Assay remarks: Gal4 LXRβ cotransfection assay (LXRβ Gal fusion assay)
Measurement setup: transiently transfected HEK 293 cells, Gal4-responsive luciferase reporter, compounds 0.01-10 μM, triplicate
Examples of molecules with documented EC50 follow.

See these solved cases before continuing.
Smiles repr: CCOC(=O)c1cn(-c2ccc(-c3cccc(S(C)(=O)=O)c3)cc2)c(CC(C)C)n1
EC50: 1 to 10 µM
--
Smiles repr: CS(=O)(=O)c1cccc(-c2ccc(-n3cc(C(F)(F)F)nc3CC(=O)O)cc2)c1
EC50: > 10 µM
--
Smiles repr: CCOC(=O)Cc1nc(C(F)(F)F)cn1-c1ccc(-c2ccc(CO)c(S(C)(=O)=O)c2)cc1
EC50: < 1 µM
--
Smiles repr: C=C(C)c1cc(-c2ccc(-c3cccc(S(C)(=O)=O)c3)cc2)n(CC(=O)O)n1
EC50: > 10 µM
--
Smiles repr: CC(C)Cn1nc(C(=O)O)cc1-c1ccc(-c2ccc(CO)c(S(C)(=O)=O)c2)cc1
EC50: > 10 µM

Data request, read-out EC50, for CC(C)Cc1nc(C(=O)O)cn1-c1ccc(-c2cccc(S(C)(=O)=O)c2)cc1 > 10 µM

Data request, read-out EC50, for CCOC(=O)Cn1nc(C(C)C)cc1-c1ccc(-c2cccc(S(C)(=O)=O)c2)cc1 1 to 10 µM

Data request, read-out EC50, for CS(=O)(=O)c1cc(-c2ccc(-n3cc(C(F)(F)F)nc3CC(=O)O)cc2)ccc1CO > 10 µM
